Entry source: patent EP0005541A2

System: Erysiphe graminis
Experiment: Erysiphe graminis protective spray test on barley seedlings (greenhouse)
Format: in vivo
Settings: 16 mg/l Spritzbrühe; barley seedlings HERTA, infected 2 days after spraying, read 7 days after infection vs infected untreated control
For each entry below, report its Wirkung (in %) Erysiphe graminis value.
Numbers only, in %.

Consider the following illustrative entries.
>>> numericresult("CC(Cc1ccc(C(C)(C)C)cc1)CN1CCC(=O)CC1 (stereo not drawn)")
80
>>> numericresult("CC(CN1CCCCC1)C(O)c1ccc(C(C)(C)C)cc1 (stereo not drawn)")
80
>>> numericresult("CC(Cc1ccc(C(C)(C)CCl)cc1)CN1CC(C)OC(C)C1 (stereo not drawn)")
75
>>> numericresult("CC(Cc1ccc(C(C)(C)CCl)cc1)CN1CC(C)CC(C)C1 (stereo not drawn)")
92

Dear colleague, could you send me Wirkung (in %) Erysiphe graminis for each of the items below? Thanks.
1. CC(CN1CCC2(CC1)OCCO2)=C(C)c1ccc(C(C)(C)C)cc1
2. CCC(C)(C)c1ccc(CC(C)CN2CCC(=O)CC2)cc1 (stereo not drawn)

Response line:
98
80
